The reported numbers originate from ChEMBL document CHEMBL1142938.

molecular target: Adenosine receptor A3 (Homo sapiens, UniProt P0DMS8); test: Displacement of [3H]NECA from human recombinant adenosine A3 receptor expressed in CHO cells
Sequence (P0DMS8 whole entry): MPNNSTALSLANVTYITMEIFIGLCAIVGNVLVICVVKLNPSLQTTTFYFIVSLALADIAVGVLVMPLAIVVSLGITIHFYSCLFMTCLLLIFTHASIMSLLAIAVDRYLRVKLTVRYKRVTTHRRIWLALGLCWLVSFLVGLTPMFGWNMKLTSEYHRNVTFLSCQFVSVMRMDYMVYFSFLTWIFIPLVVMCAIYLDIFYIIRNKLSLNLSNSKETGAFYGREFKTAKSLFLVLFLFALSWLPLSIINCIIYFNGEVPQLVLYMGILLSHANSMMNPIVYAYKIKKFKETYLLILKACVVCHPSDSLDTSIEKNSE
pKi: −log10 of the molar value.
Tick yes (1) if pKi is 8 or greater. Tick no (0) if pKi is less than 8.

molecule | classification
CONc1nc(C#Cc2ccc(CC#N)cc2)nc2c1ncn2[C@@H]1O[C@H](CO)[C@@H](O)[C@H]1O | yes (1)
CONc1nc(C#CCC(C)O)nc2c1ncn2[C@@H]1O[C@H](CO)[C@@H](O)[C@H]1O (stereo not given in full) | yes (1)
CCCCCc1ccc(C#Cc2nc(NOC)c3ncn([C@@H]4O[C@H](C(=O)NC)[C@@H](O)[C@H]4O)c3n2)cc1 | no (0)
CNC(=O)[C@H]1O[C@@H](n2cnc3c(NOC)nc(I)nc32)[C@H](O)[C@@H]1O | yes (1)
CONc1nc(C#Cc2ccccc2)nc2c1ncn2[C@@H]1O[C@@H](CO)[C@@H](O)[C@H]1O | yes (1)
CNC(=O)[C@H]1O[C@@H](n2cnc3c(NOC)nc(C#Cc4ccc(C)cc4)nc32)[C@H](O)[C@@H]1O | yes (1)
CNC(=O)[C@H]1O[C@@H](n2cnc3c(NOC)nc(C#Cc4ccc(C(C)=O)cc4)nc32)[C@H](O)[C@@H]1O | yes (1)
CCNC(=O)[C@H]1O[C@@H](n2cnc3c(NOC)nc(C#Cc4ccccn4)nc32)[C@H](O)[C@@H]1O | yes (1)
CCCCCc1ccc(C#Cc2nc(NOC)c3ncn([C@@H]4O[C@H](C(=O)NCC)[C@@H](O)[C@H]4O)c3n2)cc1 | no (0)
CCNC(=O)[C@H]1O[C@@H](n2cnc3c(NOC)nc(I)nc32)[C@H](O)[C@@H]1O | yes (1)
CONc1nc(C#Cc2ccc(OC)cc2)nc2c1ncn2[C@@H]1O[C@H](CO)[C@@H](O)[C@H]1O | yes (1)
CCNC(=O)[C@H]1O[C@@H](n2cnc3c(NOC)nc(C#Cc4ccc(C(C)=O)cc4)nc32)[C@H](O)[C@@H]1O | yes (1)
